Target or system Epidermal growth factor receptor (Homo sapiens, UniProt P00533): recorded pIC50 listed per item.
pIC50: −log10 of the molar value.
MEASURED_PARAMETER: pIC50

>>> print(df.to_string())
                           smiles_structure                             tested_system  recorded_result
0  COc1cc2c(cc1Nc1ncc(Br)c(Nc3ccc4nccnc4c3P(C)(C)=O)n1)-c1cnn(C)c1CCN2C1CN(C(C)C)C1  Epidermal growth factor receptor (Homo sapiens, UniProt P00533)           > 9.00
1  COc1cc2c(cc1Nc1ncc(C)c(Nc3ccc4nccnc4c3P(C)(C)=O)n1)-c1cnn(C)c1CCN2C(C)C  Epidermal growth factor receptor (Homo sapiens, UniProt P00533)           > 9.00
2  COc1cc2c(cc1Nc1ncc(Br)c(Nc3ccc4nccnc4c3P(C)(C)=S)n1)-c1cnn(C)c1CCN2C1CC2(C1)CN(C)C2  Epidermal growth factor receptor (Homo sapiens, UniProt P00533)           > 9.00

* * *

Reported pIC50 values for the following molecules.
- TESTED_SYSTEM: Epidermal growth factor receptor [L858R,T790M,C797S] (Homo sapiens, UniProt P00533, C797S/L858R/T790M)
- Sequence (P00533 25-1210 T790M/C797S/L858R limits assumed): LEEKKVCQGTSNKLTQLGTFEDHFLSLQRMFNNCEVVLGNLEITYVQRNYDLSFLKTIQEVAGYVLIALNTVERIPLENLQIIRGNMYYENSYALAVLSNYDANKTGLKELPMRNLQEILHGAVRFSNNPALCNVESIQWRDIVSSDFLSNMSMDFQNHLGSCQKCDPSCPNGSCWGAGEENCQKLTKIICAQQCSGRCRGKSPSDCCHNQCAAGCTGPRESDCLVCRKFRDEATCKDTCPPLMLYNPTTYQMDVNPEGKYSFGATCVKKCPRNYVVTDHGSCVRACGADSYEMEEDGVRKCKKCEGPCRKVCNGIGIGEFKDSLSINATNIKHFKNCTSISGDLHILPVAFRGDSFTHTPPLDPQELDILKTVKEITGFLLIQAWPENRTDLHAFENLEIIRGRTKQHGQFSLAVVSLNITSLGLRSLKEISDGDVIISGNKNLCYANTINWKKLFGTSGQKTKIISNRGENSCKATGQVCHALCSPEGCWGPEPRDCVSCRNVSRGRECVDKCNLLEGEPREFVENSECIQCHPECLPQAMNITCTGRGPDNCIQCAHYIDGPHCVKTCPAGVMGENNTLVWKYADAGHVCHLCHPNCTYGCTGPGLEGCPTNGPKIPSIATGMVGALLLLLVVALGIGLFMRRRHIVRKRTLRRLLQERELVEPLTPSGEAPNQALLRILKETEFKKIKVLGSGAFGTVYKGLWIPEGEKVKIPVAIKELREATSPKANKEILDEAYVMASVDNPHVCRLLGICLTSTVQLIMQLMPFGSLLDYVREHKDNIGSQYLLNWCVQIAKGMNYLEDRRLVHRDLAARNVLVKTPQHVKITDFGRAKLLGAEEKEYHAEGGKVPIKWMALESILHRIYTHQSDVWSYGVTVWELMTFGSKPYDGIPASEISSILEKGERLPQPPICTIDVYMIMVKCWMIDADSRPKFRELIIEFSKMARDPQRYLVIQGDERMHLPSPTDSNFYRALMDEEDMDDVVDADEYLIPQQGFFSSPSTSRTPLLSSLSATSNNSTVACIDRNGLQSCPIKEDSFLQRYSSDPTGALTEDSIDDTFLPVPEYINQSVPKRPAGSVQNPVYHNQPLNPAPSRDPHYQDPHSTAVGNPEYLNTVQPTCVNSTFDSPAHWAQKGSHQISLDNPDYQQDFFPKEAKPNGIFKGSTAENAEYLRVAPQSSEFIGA
- RUN_DESCRIPTION: Not found
pIC50: −log10 of the molar value.
MEASURED_PARAMETER: pIC50

In [3]: df
Out[3]:
                           smiles_structure  recorded_result
0  COc1cc2c(cc1Nc1ncc(Br)c(Nc3ccccc3P(C)(C)=O)n1)-c1ccnn1CCN2C           > 9.00
1  COc1cc2c(cc1Nc1ncc(C(F)(F)F)c(Nc3ccccc3P(C)(C)=O)n1)-c1cnn(C)c1CCN2C           > 9.00
2  COc1cc2c(cc1Nc1ncc(Br)c(Nc3ccc4nccnc4c3P(C)(C)=S)n1)-c1cnn(C)c1CCN2C1CCN(C)CC1           > 9.00

* * *

Target or system Epidermal growth factor receptor (Homo sapiens): recorded IC50 listed per item.
MEASURED_PARAMETER: IC50

>>> df
                           smiles_structure  recorded_result
0  COc1cc2c(cc1Nc1ncc(Br)c(Nc3ccccc3P(C)(C)=O)n1)-c1cnn(C)c1CCN2C1CN(C)C1           < 1 nM
1  COc1cc2c(cc1Nc1ncc(Br)c(Nc3ccc4nccnc4c3NS(C)(=O)=O)n1)-c1cnn(C)c1CCN2           < 1 nM
2  CCN1CCc2c(cnn2C)-c2cc(Nc3ncc(Br)c(Nc4ccc5nccnc5c4NS(C)(=O)=O)n3)c(OC)cc21           < 1 nM
3  COc1cc2c(cc1Nc1ncc(Br)c(Nc3ccc4nccnc4c3P(C)(C)=O)n1)-c1cnn(C)c1CCN2C1CC2(C1)CN(C)C2           < 1 nM
4  COc1cc2c(cc1Nc1ncc(Br)c(Nc3ccc4nccnc4c3C(N)=O)n1)-c1cnn(C)c1CCN2C(C)C        > 1000 nM
